Source listed as patent US7314744B2.

System: enzyme preparation TCES (protease TCES)
Protocol Text: Effects of various reagents on enzyme preparation TCES
Type: biochemical, Thermococcus celer
Measurement Conditions: treated at 37° C. for 30 minutes, reagent final concentration 1 mM; control 100%
Experimental: The enzyme activity of the enzyme preparation TC-3 obtained in the present invention can be measured using as a substrate Suc-Leu-Leu-Val-Tyr-MCA (SEQ ID NO:43) (manufactured by Peptide Laboratory). That is, the enzyme preparation to be detected for the enzyme activity is appropriately diluted, to 20 μl of the solution is added 80 μl of a 0.1M sodium phosphate buffer (pH 7.0) containing 62.5 μM Suc-Leu-Leu-Val-Tyr-MCA (SEQ ID NO:43), followed by incubating at 75° C. for 30 minutes. […]
Square brackets hold non-standard residues; d marks the D form. Peptide text beside a SMILES is read from it. * marks the point of attachment. Sta = CC(C)C[C@H](N)[C@@H](O)CC(=O)O; Isovaleryl = CC(C)CC(=O)*
Measured enzyme activity of TCES after treatment with reagent, compared with control (no reagent), listed per entry for reference.
Please respond with the number in % and leave the unit unwritten.

Worked cases, answers included:
* CC(C)CC(=O)N[C@H](C(=O)N[C@H](C(=O)N[C@@H](CC(C)C)[C@@H](O)CC(=O)N[C@@H](C)C(=O)N[C@@H](CC(C)C)[C@@H](O)CC(=O)O)C(C)C)C(C)C [Pepstatin] (Isovaleryl-VV[Sta]A[Sta]-OH) | 105.2
* CC(C)C[C@H](NC(=O)[C@@H](NC(=O)N[C@@H](Cc1ccccc1)C(=O)O)[C@@H]1CCN=C(N)N1)C(=O)N[C@H](C=O)Cc1ccccc1 [Chymostatin] | 0
* CC(=O)N[C@@H](CC(C)C)C(=O)N[C@@H](CC(C)C)C(=O)N[C@H](C=O)CCCNC(=N)N [Leupeptin] | 104.5
* CCN1C(=O)C=CC1=O [N-ethylmaleimide] | 82.6
* O=C(O)CN(CCN(CC(=O)O)CC(=O)O)CC(=O)O [EDTA] | 103.5

# input Could you please provide reported enzyme activity of TCES after treatment with reagent, compared with control (no reagent) for O=S(=O)(F)Cc1ccccc1 [PMSF, phenylmethanesulfonyl fluoride] ? Thanks!
# output 8.1
